Consider the following compounds; for each one, report its IC50.
# experiment: Antiproliferative activity against human K562-TAX cells after 3 days by MTS assay
# Format: functional, cell-based
# protocol_conditions: 72 h
Answers are plain numbers, in µM.

Answered cases to consult:
> print(dat)
                           smiles.structure  readout  quantitative.readout
1  Cn1ccc2c1c1c(Cl)ncnc1n2[C@@H]1O[C@H](CO)[C@@H](O)[C@H]1O     IC50                    50
2  COc1ncnc2c1c1occc1n2[C@@H]1O[C@H](CO)[C@@H](O)[C@H]1O     IC50                   0.3
3  OC[C@H]1O[C@@H](n2c3ccoc3c3c(-c4ccco4)ncnc32)[C@H](O)[C@@H]1O     IC50                  7.01

Kindly give each listed record's IC50.
1. CSc1ncnc2c1c1c(ccn1C)n2[C@@H]1O[C@H](CO)[C@@H](O)[C@H]1O
2. OC[C@H]1O[C@@H](n2c3ccoc3c3c(-c4cc5ccccc5o4)ncnc32)[C@H](O)[C@@H]1O
3. CSc1ncnc2c1c1occc1n2[C@@H]1O[C@H](CO)[C@@H](O)[C@H]1O
4. Cc1ncnc2c1c1occc1n2[C@@H]1O[C@H](CO)[C@@H](O)[C@H]1O
5. Cn1ccc2c3c(-c4ccco4)ncnc3n([C@@H]3O[C@H](CO)[C@@H](O)[C@H]3O)c21
6. CSc1ncnc2c1c1ccn(C)c1n2[C@@H]1O[C@H](CO)[C@@H](O)[C@H]1O

[50, 24.3, 2.7, 6.93, 2.4, 30]

Kindly give each listed record's IC50.
1. OC[C@H]1O[C@@H](n2c3ccoc3c3c(-c4ccoc4)ncnc32)[C@H](O)[C@@H]1O
2. Nc1ncnc2c1c(-c1cccs1)cn2[C@@H]1O[C@H](CO)[C@@H](O)[C@H]1O

[9.78, 0.04]
